Listed next: entries and their corresponding protein stability index.
B1: NEK8 (parent)
chain: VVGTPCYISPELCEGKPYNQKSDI

Variants of: B1
Assay: protein stability index of a GFP-peptide fusion (GPS, HEK-293T) (PSI 1-6); higher = more stable;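 further: lentivirally expressed fusions sorted by FACS into six bins by GFP to DsRed ratio, PSI derived from sequencing read proportions per bin multiplied by bin number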
Settings: c terminus: a fixed tail appended
measurementKind: protein stability index

variantidentifier=I24G measurementkind="protein stability index" number=3.4
variantidentifier=C6D measurementkind="protein stability index" number=4.4
variantidentifier=P5E measurementkind="protein stability index" number=3.53
variantidentifier=E11K measurementkind="protein stability index" number=2.74
variantidentifier=S22V measurementkind="protein stability index" number=2.36
variantidentifier=I8Q measurementkind="protein stability index" number=4.42
variantidentifier=I8M measurementkind="protein stability index" number=2.89
variantidentifier=E11F measurementkind="protein stability index" number=1.5
variantidentifier=E11W measurementkind="protein stability index" number=1.08
variantidentifier=Y18A measurementkind="protein stability index" number=3.6
variantidentifier=Q20S measurementkind="protein stability index" number=2.49
variantidentifier=G15T measurementkind="protein stability index" number=2.87
variantidentifier=L12N measurementkind="protein stability index" number=3.62
variantidentifier=V1E measurementkind="protein stability index" number=4.48
variantidentifier=E14V measurementkind="protein stability index" number=2.23

Sourced from the supplement of paper PMC10567573
